Target Or System: Aromatase (Homo sapiens)
Sequence (P11511 whole entry): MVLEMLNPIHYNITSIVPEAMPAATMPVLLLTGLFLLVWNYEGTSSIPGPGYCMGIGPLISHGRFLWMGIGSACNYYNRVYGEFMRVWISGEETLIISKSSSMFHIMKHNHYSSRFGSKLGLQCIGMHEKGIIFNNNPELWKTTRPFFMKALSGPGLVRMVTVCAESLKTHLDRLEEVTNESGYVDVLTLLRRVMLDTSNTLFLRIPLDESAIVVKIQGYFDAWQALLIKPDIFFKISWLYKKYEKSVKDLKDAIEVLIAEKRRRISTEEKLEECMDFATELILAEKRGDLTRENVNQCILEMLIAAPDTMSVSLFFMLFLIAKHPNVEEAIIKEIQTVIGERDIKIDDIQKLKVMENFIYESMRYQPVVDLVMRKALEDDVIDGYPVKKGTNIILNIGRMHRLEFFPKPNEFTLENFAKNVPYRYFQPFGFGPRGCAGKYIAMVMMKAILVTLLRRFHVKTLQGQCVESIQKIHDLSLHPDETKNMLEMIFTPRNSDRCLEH
Measured Property: log10 IC50 (log10 of the value in nM)

{"Compound Structure String": "Fc1ccc(-c2[nH]c3cc(Cl)ccc3c2Cn2ccnc2)cc1", "log10 IC50": 1.51}
{"Compound Structure String": "COc1ccc2c(Cn3cncn3)c(-c3ccc(F)cc3)[nH]c2c1", "log10 IC50": 2.38}
{"Compound Structure String": "COc1ccc(-c2[nH]c3cc(F)ccc3c2Cn2cncn2)cc1", "log10 IC50": 1.15}
{"Compound Structure String": "COc1ccc2c(Cn3ccnc3)c(-c3ccc(Cl)cc3)[nH]c2c1", "log10 IC50": 3.03}
{"Compound Structure String": "Clc1ccc(-c2[nH]c3cc(Cl)ccc3c2Cn2cncn2)cc1", "log10 IC50": 2.32}
{"Compound Structure String": "COc1ccc(-c2[nH]c3cc(F)ccc3c2Cn2ccnc2)cc1", "log10 IC50": 1.56}
{"Compound Structure String": "Fc1ccc(-c2[nH]c3cc4c(cc3c2Cn2cncn2)OCO4)cc1", "log10 IC50": 1.77}
